Test system: SK-MEL-2
Experiment: Anticancer activity against human SK-MEL-2 cells by SRB assay
Format: functional, cell-based
pIC50: −log10 of the molar value.
reportedProperty: pIC50

For orientation, consider the following solved cases.
COc1cc([C@H]2Oc3c(OC)cc(CCCO)cc3[C@@H]2CO)ccc1O [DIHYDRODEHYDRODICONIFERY ALCOHOL]	4.63
COc1ccc([C@H](O)[C@@H](CO)Oc2c(OC)cc([C@@H]3Oc4c(OC)cc(CCCO)cc4[C@H]3CO)cc2OC)cc1OC	4.56

[1] COc1ccc(C[C@H]2CO[C@H](c3ccc(OC)c(OC)c3)[C@H]2CO)cc1OC
[2] COc1cc([C@@H]2OC[C@@H]3[C@H]2CO[C@H]3c2cc(OC)c(O)c(OC)c2)cc(OC)c1O
Among 1 and 2 , whose measured pIC50 is the smaller figure? Please reply using the label of the selected record.
1
(1: 4.60, 2: 4.84)

----------
Quick reference for pIC50 among some compounds
Test system: SK-OV-3
Test: Anticancer activity against human SKOV3 cells by SRB assay
Format: functional, cell-based
pIC50: −log10 of the molar value.

For orientation, consider the following solved cases.
COc1cc([C@H]2c3c(cc(OC)c(O)c3OC)C[C@@H](CO)[C@@H]2CO)cc(OC)c1O	< 4.52
COc1ccc(C[C@H]2CO[C@H](c3ccc(OC)c(OC)c3)[C@H]2CO)cc1OC	4.67
COc1ccc(CC(=O)O)cc1	< 4.52
COc1cc(C(=O)CCO)ccc1O	< 4.52

Turning to the following compound.
Write down pIC50 measured for item COC(=O)[C@H](CO)c1cc(OC)c(O)c(OC)c1 [BERFUSSINOL]
< 4.52

----------
Quick reference for pIC50 among some compounds
System: SK-MEL-2
Assay: Anticancer activity against human SK-MEL-2 cells by SRB assay
Format: functional, cell-based
pIC50: −log10 of the molar value.

For orientation, consider the following solved cases.
COc1cc(C(=O)CCO)ccc1O	< 4.52
COc1cc(C[C@@H](CO)[C@](O)(CO)Cc2ccc(O)c(OC)c2)ccc1O	< 4.52
COc1cc(C(=O)CCO)cc(OC)c1O	< 4.52
COc1cc(/C=C/C=O)ccc1O	< 4.52
COC(=O)[C@H](CO)c1cc(OC)c(O)c(OC)c1	4.57

Turning to the following compound.
Write down pIC50 measured for item COc1cc([C@@H]2OC[C@@H]3[C@H]2CO[C@H]3c2ccc(O[C@@H]3O[C@H](CO)[C@@H](O)[C@H](O)[C@H]3O)c(OC)c2)ccc1O
< 4.52

----------
Quick reference for pIC50 among some compounds
Test system: SK-MEL-2
Experiment: Anticancer activity against human SK-MEL-2 cells by SRB assay
Type: functional, cell-based
pIC50: −log10 of the molar value.

For orientation, consider the following solved cases.
COc1cc([C@@H]2OC[C@H]3[C@@H]2CO[C@H]3c2ccc(O)c(OC)c2)ccc1O [(-)-PINORESINOL]	4.58
COc1cc(C[C@H]2CO[C@H](c3ccc(O)c(OC)c3)[C@H]2CO)ccc1O [LARICIRESINOL]	< 4.52
COc1cc(C[C@H]2COC(=O)[C@@H]2Cc2ccc(O)c(OC)c2)ccc1O [MATAIRESINOL]	< 4.52
COc1ccc(CC(=O)O)cc1	< 4.52
COc1cc([C@@H]2c3cc(O)c(OC)cc3C[C@H](CO)[C@H]2CO)ccc1O [(-)-ISOLARICIRESINOL]	4.60

Write down pIC50 measured for item COc1cc([C@@H]2c3c(cc(OC)c(O)c3OC)C[C@H](CO)[C@H]2CO)cc(OC)c1O
< 4.52

Write down pIC50 measured for item COc1cc(C[C@@H](CO)[C@H](CO)Cc2ccc(O)c(OC)c2)ccc1O [(+)-SECOISOLARICIRESINOL]
4.67

Write down pIC50 measured for item COc1cc([C@H]2c3c(cc(OC)c(O)c3OC)C[C@@H](CO)[C@@H]2CO)cc(OC)c1O
< 4.52

Write down pIC50 measured for item COc1cc(C(=O)O)ccc1O [VANILLIC ACID]
< 4.52

Write down pIC50 measured for item COc1cc([C@@H](O)[C@@H](CO)Oc2ccc(CCCO)cc2OC)ccc1O
< 4.52
